Test system: B. cereus (ATCC-13061)
Assay: Broad-spectrum activity against Gram-Positive bacteria (MIC)
Format: cell-based
Design: unit not given here
Non-standard residues stand in square brackets, D forms with d. Residues, ends and D or L forms follow the SMILES beside them. Dip = N[C@H](C(=O)O)C(c1ccccc1)c1ccccc1
OBSERVED_PROPERTY: Broad-spectrum activity B. cereus (ATCC-13061)

{"COMPOUND": "N=C(N)NCCC[C@@H]1NC(=O)[C@H](CCCNC(=N)N)NC(=O)[C@H](C(c2ccccc2)c2ccccc2)NC(=O)[C@H](Cc2c[nH]c3ccccc23)NC(=O)[C@H](C(c2ccccc2)c2ccccc2)NC(=O)[C@H](CCCNC(=N)N)NC1=O [IFX-021, c[Arg-Arg-Arg-Dip-Trp-Dip]] (cyclo([Dip]RRR[Dip]W))", "EXPERIMENTAL_RESULT": 6.2}

* * *

Tested on: Pseudomonas aeruginosa (ATCC 27883)
Conditions: ATCC 27883
Non-standard residues stand in square brackets, D forms with d. Residues, ends and D or L forms follow the SMILES beside them. Bip = N[C@@H](Cc1ccc(-c2ccccc2)cc1)C(=O)O; 2Nal = N[C@@H](Cc1ccc2ccccc2c1)C(=O)O; d2Nal = N[C@H](Cc1ccc2ccccc2c1)C(=O)O
Reported MIC P. aeruginosa ATCC 27883 by item:
OBSERVED_PROPERTY: MIC P. aeruginosa ATCC 27883 (µg/mL)

{"COMPOUND": "N=C(N)NCCC[C@@H]1NC(=O)[C@H](CCCNC(=N)N)NC(=O)[C@H](CCCNC(=N)N)NC(=O)[C@H](Cc2ccc3ccccc3c2)NC(=O)[C@H](Cc2ccc3ccccc3c2)NC(=O)[C@H](Cc2ccc3ccccc3c2)NC(=O)[C@H](CCCNC(=N)N)NC1=O [IFX-009, c[Arg-Arg-Arg-Arg-NaI-NaI-NaI]] (cyclo(RRRR[2Nal][2Nal][2Nal]))", "SYSTEM_NAME": "Pseudomonas aeruginosa (ATCC 27883)", "COMPARATOR": "=", "EXPERIMENTAL_RESULT": 12.5}
{"COMPOUND": "N=C(N)NCCC[C@H](NC(=O)[C@H](CCCNC(=N)N)NC(=O)[C@H](CCCNC(=N)N)NC(=O)[C@@H](N)CCCNC(=N)N)C(=O)N[C@@H](Cc1ccc(-c2ccccc2)cc1)C(=O)N[C@@H](Cc1ccc(-c2ccccc2)cc1)C(=O)N[C@@H](Cc1ccc(-c2ccccc2)cc1)C(=O)N[C@@H](Cc1ccc(-c2ccccc2)cc1)C(=O)O [IFX-004-1, NH2-Arg-Arg-Arg-Arg-Bip-Bip-Bip-Bip-OH] (H-RRRR[Bip][Bip][Bip][Bip]-OH)", "SYSTEM_NAME": "Pseudomonas aeruginosa (ATCC 27883)", "COMPARATOR": ">", "EXPERIMENTAL_RESULT": 100}
{"COMPOUND": "NCCCC[C@H]1NC(=O)[C@@H](CCCCN)NC(=O)[C@@H](CCCCN)NC(=O)[C@@H](Cc2ccc3ccccc3c2)NC(=O)[C@@H](Cc2ccc3ccccc3c2)NC(=O)[C@@H](Cc2c[nH]c3ccccc23)NC(=O)[C@@H](CCCCN)NC1=O [IFX-130, c[lys-lys-lys-lys-trp-naI-naI]] (cyclo([d2Nal][d2Nal][dK][dK][dK][dK][dW]))", "SYSTEM_NAME": "Pseudomonas aeruginosa (ATCC 27883)", "COMPARATOR": "=", "EXPERIMENTAL_RESULT": 128}
